- Tested System: Cat L (UniProt P07711)
- Assay Notes: Cathepsin enzyme inhibition assay (fluorogenic peptide substrate Z-Val-Val-Arg-AMC), Cathepsin L
- Assay type: biochemical, human and mouse
- Experimental Parameters: enzyme 1 nM, substrate 20 μM, pH 6.5; read-out: CatL IC50
Recorded Metric: IC50 (µM)

N#CC1(NC(=O)[C@@H]2C[C@@H](S(=O)(=O)c3ccc(N4CCOCC4)cc3Cl)CN2C(=O)C2(C(F)(F)F)CC2)CC1 ... 6.07

[a] Cc1cc(N2C[C@H](S(=O)(=O)c3ccccc3C(F)(F)F)C[C@H]2C(=O)NC2(C#N)CC2)n(C)n1
[b] CC(C)(C)OC(=O)N[C@H]1CC[C@H](CC(=O)N2C[C@H](S(=O)(=O)c3ccc(OCC(F)(F)F)cc3Cl)C[C@H]2C(=O)NC2(C#N)CC2)CC1
[c] Cc1cc(N2C[C@H](S(=O)(=O)c3ccc(N4CCN(C)CC4)cc3Cl)C[C@H]2C(=O)NC2(C#N)CC2)n(C2CCC2)n1
[d] N#CC1(NC(=O)[C@@H]2C[C@@H](S(=O)(=O)c3ccccc3Cl)CN2C(=O)C2(c3cc(F)c(Cl)cc3Cl)CC2)CC1
[e] N#CC1(NC(=O)[C@@H]2C[C@@H](S(=O)(=O)c3ccccc3Cl)CN2C(=O)C2(c3ccncc3)CC2)CC1
input: # desc sort on IC50 across 5 compounds The reply should contain the labels ordered as requested.
output: a, b, e, c, d
(a: 50.7 µM, b: 8.38 µM, e: 2.6 µM, c: 1.08 µM, d: 0.0225 µM)
